method.summary: Inhibition of Oryza sativa (rice) PDHc by spectrophotometric assay
parameter.measured: pIC50
Scale: negative log10 of molar concentration, which is what pIC50 denotes.

Worked cases, answers included:
Query: If you can, please state the reported pIC50 value of CCCC(OC(=O)COc1ccc(Cl)cc1Cl)P(=O)([O-])OC.[Na+] (configuration not stated) .
Result: 5.49

Query: For CCC(OC(=O)COc1ccc(Cl)cc1Cl)P(=O)([O-])OC.[Na+] (configuration not stated) , what is its reported pIC50?
Result: 4.72

Query: Quick one: pIC50 of COP(=O)([O-])C(OC(=O)COc1ccc(Cl)cc1Cl)c1ccco1.[Na+] (configuration not stated) ?
Result: 4.39

Query: I would be grateful if you could share the reported pIC50 for COP(=O)(OC)C(C)OC(=O)COc1ccc(Cl)cc1Cl (configuration not stated) .
Result: 3.06

Query: // lookup pIC50 for COP(=O)([O-])C(C)OC(=O)COc1ccc(Cl)cc1Cl.[Na+] (configuration not stated)
Result: 6.54

Others:
Query: Would you mind telling me what pIC50 value was observed for COP(=O)([O-])COC(=O)COc1ccc(Cl)cc1Cl.[Na+] ?
Result: 4.54

Query: GET /values?readout=pIC50&item= COP(=O)(OC)C(OC(=O)COc1ccc(Cl)cc1Cl)c1ccco1 (configuration not stated)
Result: 3.15
